Attribution: patent US4758572A

Tested on: HSV type1 H29 Strain
Test: Yield reduction assay with HSV type 1 H29 strain
Format: cell-based, herpes simplex virus type 1
Details: Compound A with addition of 0.2 μM ACV; read-out: ED50 (the source's name)
recorded metric: EC50 (nM)
Answers are plain numbers, in nM.

Would you mind telling me what EC50 value was observed for CC(=NNC(=S)NCCN1CCOCC1)c1ccccn1 [Compound A] ? 700
